test system: BT-549 breast; assay: NCI tumour cell line growth inhibition, 48 h
measured_metric: TGI

CN1C(Cl)=NS(=O)(=O)c2ccccc21 | > 100 µM
COc1ccc(Nc2cc(C)nc(N3CCN(c4ccnc5cc(Cl)ccc45)CC3)n2)cc1 | 8.06 µM

Reported TGI ( O=C(/C=C(\O)c1ccccc1)c1cc(-c2ccccc2)n(-c2ccccc2)n1 ) = 26.1 µM

The compound listed as C[C@]12CC[C@H](O)CC1=CC[C@@H]1C2CC[C@]2(C)Nc3c(cnn3-c3ccc(F)cc3)CC12 (stereo partly specified) shows TGI equal to 38.9 µM

====

system: NCI-H460 lung; assay: NCI tumour cell line growth inhibition, 48 h
Item-by-item account of TGI

Previously resolved entries follow.
CC12Oc3ccc4ccccc4c3CC1Cc1c(ccc3ccccc13)O2 (stereo not given) | > 100 µM
COc1ccc2c(c1OC)C(=O)c1cnccc1C2=O | > 100 µM
Cc1ccc(NC(=O)C(=O)Cc2cc[n+]([O-])cc2)cc1 | > 100 µM
Cc1c(C)c(S(=O)(=O)N(CCCCCON)OCCCN)c(C)c2c1OC(C)(C)CC2 | 22.4 µM
CCOC(=O)/C(C#N)=C/c1ccc2c(c1)CC1(C2)Cc2cc(CC)c(C(C)O)cc2C1 (stereo not given) | 77.1 µM

Entry under test: CCCC[C@H]1CCN2C[C@@H](O)[C@@H](O)[C@H]2[C@@H]1O . Its TGI was > 100 µM

TGI in this record for CC[C@@H]1/C=C/C=C/C[C@H](C)[C@@H](O)[C@](C)(O)C(=O)[C@H](C)[C@@H](O)[C@H](C)C(=O)[C@H](C)[C@@H](O)[C@H](C)/C=C/C(=O)O[C@H]2[C@@H](C)[C@@H](CC1)O[C@@]1(CC[C@@H](C)[C@@H](CC(C)O)O1)[C@@H]2C (stereo not given in full) : 4.25 µM

Value of measured TGI for the entry CCC(=O)C(C(C)/C=C/CCSc1ccccc1)C(O)CCCCCC(=O)OC (stereo not given) : > 100 µM

====

system: SK-MEL-2 melanoma; test: NCI tumour cell line growth inhibition, 48 h; in the data active means GI50 below about 0.43 µM; inactive means the rest
The reply should name one outcome from active, inactive

Example cases with answers are listed next.
CCN(CC)CCOc1ccc(C(=O)/C=C\c2ccc(Cl)cc2Cl)cc1 | inactive
Oc1ccc(Cl)cc1CNc1nc2ccccc2[nH]1 | inactive
CCN(CC)CCSCCCNc1c2ccc(Cl)cc2nc2ccc(OC)cc12 | inactive

Tell me the recorded outcome of this test for O=S(=O)(NCCNc1nccc(-c2c(-c3ccc(F)cc3)nc3sccn23)n1)c1ccccc1 . inactive

Outcome logged for Cn1cnc([N+](=O)[O-])c1Sc1ncn[nH]1 in this assay: inactive

Record request — test call for O=C(Nc1ccc(I)cc1F)c1cc(Cl)ccc1O active

For CC(=O)Oc1ccc(C(c2ccc(OC(C)=O)cc2)c2ccccn2)cc1 , which call appears in the assay record? inactive

Could you please tell me the result logged for CCn1c2ccccc2c2cc(C(O)c3cccc4ncccc34)ccc21 (stereo unspecified) in this assay? active

Can you look up the reported call for COc1ccc(C2=CC(c3ccc(OC)c(OC)c3)c3c(c4ccccc4oc3=O)O2)cc1OC (stereo unspecified) for me? inactive

Which outcome was entered for the compound ClCC[N+]12CC[N+](CCCl)(CC1)C2 (tested in a mixture with another compound) in this test? inactive

# lookup: test call for COc1cc(Cl)cc(-c2nn(-c3cccc(NC(=O)Nc4ccc(Cl)c(C(F)(F)F)c4)c3)cc2-c2ccncc2)c1 inactive

Given CO[C@H]1CC(c2ccc[nH]2)=N[C@]12O[C@@H](C)C[C@@H]1CCCCCCCc3ccc([nH]3)[C@H]12 , state the outcome it received in this test. inactive

Could you check what this test reported for CN(C)CCN1C(=O)c2cccc3cccc(c23)C1=O ? inactive

Please indicate how the test categorized ClCc1ccc(Cn2cnc3c(Cl)nc(Cl)nc32)cc1 . inactive

I would be grateful if you could indicate the recorded call for COc1cc(/C=C/C(=O)c2cccnc2Nc2ccc(F)cc2)cc(OC)c1OC . inactive

Short answer needed: outcome of this test for O=C1NCCS(=O)(=O)/C1=C\C=C\c1cccc(C(F)(F)F)c1 ? inactive

====

test system: UACC-62 melanoma; test: NCI tumour cell line growth inhibition, 48 h
measured_metric: TGI

Recorded results for 3 compounds are shown here.
Cc1cc(Cl)ccc1C1OC(=O)c2c1ccc1ccccc21 (stereo unspecified) | > 100 µM
CCc1nc(N)nc(N)c1-c1ccc(Cl)c(N=CN(C)C)c1 | > 100 µM
N#CC(C#N)=Cn1c(=S)[nH]c2ccccc21 | > 100 µM

TGI reading for COc1ccc(N=[N+]([O-])c2ccc(OC)cc2)cc1 : > 100 µM

# TGI of COc1ccc(N2C(=O)CC(c3c[nH]c4ncccc34)C2=O)cc1 (stereo unspecified) = > 96.4 µM

Notebook: CN(C)Cc1cc(C(C)(C)C)cc(C2CCCCC2)c1O , TGI read as 29.8 µM

The compound listed as CCCC[C@H]1CCN2C[C@@H](O)[C@@H](O)[C@H]2[C@@H]1O has a reported TGI of > 100 µM

====

test system: NCI/ADR-RES ovarian; assay: NCI tumour cell line growth inhibition, 48 h
measured_metric: TGI

Check out these entries, answers already filled in.
NC(=O)c1cccc([C@@H]2O[C@H](CO)[C@@H](O)[C@H]2O)c1 | 16.3 µM
CC(=O)ON(C(C)=O)c1ccc(-c2nc3ccccc3s2)cc1C | > 100 µM
CN(C)CC1CN=C(NC(=O)Nc2ccccc2)O1 (stereo unspecified) | > 100 µM

Bench note, NCI/ADR-RES ovarian: COc1cc(/C=C/C(=O)c2cccnc2Nc2ccc(F)cc2)cc(OC)c1OC , TGI reads 8.14 µM

The measured TGI that O=C(N/N=C\C(F)(F)F)c1ccncc1 showed for NCI/ADR-RES ovarian is > 100 µM

The molecule Nc1nc(N)c2nc(CNc3ccc(C(=O)NC(CCCCNC(=O)c4ccccc4C(=O)O)C(=O)O)cc3)cnc2n1 (stereo unspecified) , when measured on NCI/ADR-RES ovarian, yielded TGI of > 100 µM

Measured on NCI/ADR-RES ovarian, Oc1ccc(Cl)cc1CNc1nc2ccccc2[nH]1 has a documented TGI of 37.8 µM

Sample S=c1[nH]nc(NNc2ccccc2)n1Nc1ccccc1 , system: NCI/ADR-RES ovarian. Its TGI is > 100 µM

====

tested on: M14 melanoma; test: NCI tumour cell line growth inhibition, 48 h
measured_metric: TGI

Nc1nc(N)c2nc(CNc3ccc(C(=O)NC(CCCCNC(=O)c4ccccc4C(=O)O)C(=O)O)cc3)cnc2n1 (stereo not given) | > 100 µM
Cn1cnc([N+](=O)[O-])c1Sc1ncn[nH]1 | > 100 µM

Notebook: O=C(/C=C1/Nc2ccc([N+](=O)[O-])cc2NC1O)c1cccc([N+](=O)[O-])c1 (stereo not given) , TGI read as > 100 µM

Recorded TGI (compound O=C(Nc1ccn(CCI)c(=O)n1)c1ccccc1 ): > 100 µM

According to the records, this compound CC(C)(C)S(=O)OC12CC3CC(CC(C3)C1)C2 (stereo not given) displays TGI of > 100 µM

====

GI50 values by entry
system: CAKI-1 renal

COc1ccc(Nc2cc(C)nc(N3CCN(c4ccnc5cc(Cl)ccc45)CC3)n2)cc1 | 2.71 µM
C/C=C(\C)C(=O)N[C@H]1C(O)C[C@]2(C)C3CC[C@@]4(C)C(CC[C@@H]4C(C)N(C)C)C3CCC2C1O (stereo partly drawn) | 9.42 µM

Now turn to the next molecule.
Form: item COc1ccc2nc(NC(=O)c3cccnc3Nc3cc(OC)c(OC)c(OC)c3)sc2c1 ; test system CAKI-1 renal; GI50: 16.4 µM

====

system: SW-620 colon; experiment: NCI tumour cell line growth inhibition, 48 h
measured_metric: TGI

Some solved cases for reference:
CC1=C(C(=O)OC(C)C)C(c2ccccc2C(F)(F)F)C(C(=O)OC(CO[N+](=O)[O-])CO[N+](=O)[O-])=C(C)N1 (stereo not drawn) | 23.3 µM
COC1=C2CC(C)CC(OC)C(O)C(C)/C=C(\C)C(OC(N)=O)C(OC)/C=C\C=C(/C)C(=O)NC(=C(/C=N/N3CCCCC3)C1=O)C2=O (stereo not drawn) | 8.7 µM
Cc1cccc2nc3cccc(C(=O)NCCN(C)C)c3nc12 | 11.2 µM

TGI for N#Cc1nc(COCCOCc2ccc(F)cc2)oc1N is > 100 µM

The recorded TGI for N#CCCN(CCN(CCC#N)C(=O)Nc1ccccc1)C(=O)Nc1ccccc1 is > 100 µM

Per the record, O=C(Nc1ccc(Cl)c(Cl)c1)OCCN1c2ccccc2Sc2ccccc21 has TGI of > 10 µM

====

test system: MDA-MB-231 breast; test: NCI tumour cell line growth inhibition, 48 h
measured_metric: TGI

CC(C)(C)C1CCC2c3c([nH]c4ccccc34)C3C(=O)N(c4ccc5c(c4)C(=O)c4ccccc4C5=O)C(=O)C3C2C1 (stereo unspecified) | > 100 µM
Clc1nc(Cl)c2ncn(Cc3ccc(Cn4cnc5c(Cl)nc(Cl)nc54)cc3)c2n1 | 22.4 µM
N#Cc1c(N2CCOCC2)[nH]c(=O)c(C(c2c(Cl)cccc2Cl)c2c(O)c(C#N)c(N3CCOCC3)[nH]c2=O)c1O | 30.4 µM
Cc1nc(Nc2nc3ccccc3o2)nc(-c2cccc([N+](=O)[O-])c2)c1C(=O)Nc1ccc(F)c(Cl)c1 | 4.82 µM
CC(C)C(NC(=O)C(Cc1ccccc1)NC(=O)[C@H]1CCC[C@H]1NC(=O)C(N)Cc1ccc(O)cc1)C(N)=O (stereo partly specified) | > 100 µM
Cc1cc(-c2nc3cccc(F)c3s2)ccc1N | > 100 µM
CCCCNC(=S)/N=C/c1c(O)c2ccccc2[nH]c1=O | > 10 µM
COc1ccc(OC)c(Nc2nc(-c3c(C)nc4sccn34)cs2)c1 | > 100 µM
CN(/N=N/c1nc(OCc2ccccc2)c2[nH]cnc2n1)C(=O)Oc1ccc([N+](=O)[O-])cc1 | 18.6 µM
Cc1cc2c(cc1N)C(C)C1(CCC(=O)N2Cc2ccccc2)OCCO1 (stereo unspecified) | > 100 µM

Value of TGI reported for the compound C/C=C/[C@H](O[Si](C)(C)C(C)(C)C)[C@@H](O)/C=C/C(=O)OCC is 66 µM
